experiment description: Pharmacokinetic study in SD rats (plasma and brain)
Assay type: in vivo
test settings: male, rat, brain/plasma, oral, IG 24.4 μmol/kg, 6 h, read-out: Brain-to-blood ratio
measurement label: Kp at 6 h
Give the figure by itself; no unit, no explanation.

Lab book: Kp at 6 h of `C[C@@]1(O)CC[C@H]2[C@H](CC[C@@H]3[C@@H]2CC[C@]2(C)[C@@H](C(=O)Cn4cnn(-c5cc(F)nc(F)c5)c4=O)CC[C@@H]32)C1` noted as 1.8

* * *

assayed target: α4β3δ GABA receptors (α4β3δ-HEK-FlpIn-TRex stable cell strain) (Homo sapiens, UniProt P28472+P48169)
Construct: expressed in transfected cells
Sequence (P48169 36-554): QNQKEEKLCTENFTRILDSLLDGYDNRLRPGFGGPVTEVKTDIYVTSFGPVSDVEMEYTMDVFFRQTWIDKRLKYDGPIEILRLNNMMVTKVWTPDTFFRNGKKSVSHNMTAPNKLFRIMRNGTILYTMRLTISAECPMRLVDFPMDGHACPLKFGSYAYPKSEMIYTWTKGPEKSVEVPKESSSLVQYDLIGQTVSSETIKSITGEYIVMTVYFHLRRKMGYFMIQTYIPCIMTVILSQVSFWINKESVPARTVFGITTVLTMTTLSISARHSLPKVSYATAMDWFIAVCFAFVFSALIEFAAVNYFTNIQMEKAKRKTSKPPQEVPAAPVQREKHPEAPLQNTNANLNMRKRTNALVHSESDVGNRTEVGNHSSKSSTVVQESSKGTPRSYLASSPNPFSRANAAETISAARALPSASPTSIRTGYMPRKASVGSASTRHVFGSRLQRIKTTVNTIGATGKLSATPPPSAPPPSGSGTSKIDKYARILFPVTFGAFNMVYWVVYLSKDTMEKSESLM
Sequence (P28472 26-473): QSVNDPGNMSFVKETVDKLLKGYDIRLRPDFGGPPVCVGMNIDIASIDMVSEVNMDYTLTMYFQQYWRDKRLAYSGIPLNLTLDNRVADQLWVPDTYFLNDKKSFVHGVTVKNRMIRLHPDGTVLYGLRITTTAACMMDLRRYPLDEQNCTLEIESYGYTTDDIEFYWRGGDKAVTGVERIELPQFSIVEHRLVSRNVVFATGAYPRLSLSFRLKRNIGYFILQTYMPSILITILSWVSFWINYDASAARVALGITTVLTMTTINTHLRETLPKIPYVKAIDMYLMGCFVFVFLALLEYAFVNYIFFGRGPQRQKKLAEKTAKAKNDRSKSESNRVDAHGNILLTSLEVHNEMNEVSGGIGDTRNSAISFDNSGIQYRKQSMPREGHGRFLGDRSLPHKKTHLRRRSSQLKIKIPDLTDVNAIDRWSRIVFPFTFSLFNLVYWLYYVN
Sequence (O14764 25-452 partner): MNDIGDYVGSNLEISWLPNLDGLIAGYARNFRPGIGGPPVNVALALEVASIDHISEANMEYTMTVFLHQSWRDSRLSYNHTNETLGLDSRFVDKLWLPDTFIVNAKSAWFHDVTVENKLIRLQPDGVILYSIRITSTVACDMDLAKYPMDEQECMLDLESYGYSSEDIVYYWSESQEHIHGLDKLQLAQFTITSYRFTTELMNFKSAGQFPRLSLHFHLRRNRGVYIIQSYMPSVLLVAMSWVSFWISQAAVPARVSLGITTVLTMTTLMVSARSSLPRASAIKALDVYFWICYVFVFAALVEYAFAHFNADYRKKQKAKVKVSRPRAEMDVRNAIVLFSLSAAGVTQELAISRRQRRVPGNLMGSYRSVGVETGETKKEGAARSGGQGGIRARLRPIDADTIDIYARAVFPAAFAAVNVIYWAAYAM
experiment description: Whole-cell patch clamp, extrasynaptic functional activity (positive allosteric regulation of GABA-induced current)
Format: cell-based
test settings: patch clamp -60 mV, GABA at EC10-20, α4β3δ-HEK-FlpIn-TRex cells
measurement label: Emax

C[C@@]1(O)CC[C@H]2[C@H](CC[C@@H]3[C@@H]2CC[C@]2(C)[C@@H](C(=O)Cn4cnn(-c5ccc(F)cc5F)c4=O)CC[C@@H]32)C1 [Compound 25] | 542%
C[C@@]1(O)CC[C@H]2[C@H](CC[C@@H]3[C@@H]2CC[C@]2(C)[C@@H](C(=O)Cn4cnn(-c5cccc(F)c5F)c4=O)CC[C@@H]32)C1 [Compound 27] | 526%
C[C@@]1(O)CC[C@H]2[C@H](CC[C@@H]3[C@@H]2CC[C@]2(C)[C@@H](C(=O)Cn4cnn(-c5cccnc5)c4=O)CC[C@@H]32)C1 [Compound 2] | 391%
C[C@@]1(O)CC[C@H]2[C@H](CC[C@@H]3[C@@H]2CC[C@]2(C)[C@@H](C(=O)Cn4cnn(-c5cc(F)ccc5F)c4=O)CC[C@@H]32)C1 [Compound 24] | 743%
C[C@@]1(O)CC[C@H]2[C@H](CC[C@@H]3[C@@H]2CC[C@]2(C)[C@@H](C(=O)Cn4ccn(-c5cccc(F)c5)c4=O)CC[C@@H]32)C1 [Compound 11] | 552%

Lab book: Emax of C[C@@]1(O)CC[C@H]2[C@H](CC[C@@H]3[C@@H]2CC[C@]2(C)[C@@H](C(=O)Cn4cnn(-c5cc(Cl)ccn5)c4=O)CC[C@@H]32)C1 [Compound 26] noted as 589%

* * *

experiment description: In vitro liver microsomal stability assay, rat
Format: in vitro ADME
test settings: Rat liver microsomes; read-out: CLint(mic)
measurement label: microsomal CLint at 1 µM (µL/min/mg)
Value expressed in µL/min/mg; do not type the unit.

C[C@@]1(O)CC[C@H]2[C@H](CC[C@@H]3[C@@H]2CC[C@]2(C)[C@@H](C(=O)Cn4cnn(-c5cccc(F)c5F)c4=O)CC[C@@H]32)C1 [Compound 27] | 68

Lab book: microsomal CLint at 1 µM of CC(C)(C)n1ncn(CC(=O)[C@H]2CC[C@H]3[C@@H]4CC[C@@H]5C[C@](C)(O)CC[C@@H]5[C@H]4CC[C@]23C)c1=O [Compound 45] noted as 156

Lab book: microsomal CLint at 1 µM of C[C@@]1(O)CC[C@H]2[C@H](CC[C@@H]3[C@@H]2CC[C@]2(C)[C@@H](C(=O)Cn4cnn(-c5ccnc(F)c5)c4=O)CC[C@@H]32)C1 [Compound 21] noted as 38

Lab book: microsomal CLint at 1 µM of C[C@@]1(O)CC[C@H]2[C@H](CC[C@@H]3[C@@H]2CC[C@]2(C)[C@@H](C(=O)Cn4cnn(-c5cccc(C#N)c5)c4=O)CC[C@@H]32)C1 [Compound 34] noted as 54

Lab book: microsomal CLint at 1 µM of C[C@@]1(O)CC[C@H]2[C@H](CC[C@@H]3[C@@H]2CC[C@]2(C)[C@@H](C(=O)Cn4cnn(-c5ccc(F)cc5F)c4=O)CC[C@@H]32)C1 [Compound 25] noted as 58

Lab book: microsomal CLint at 1 µM of C[C@@]1(O)CC[C@@]2(C)[C@@H](CC[C@@H]3[C@@H]2CC[C@]2(C)[C@@H](C(=O)Cn4cnn(-c5cccc(F)c5)c4=O)CC[C@@H]32)C1 [Compound 33] noted as 16

Lab book: microsomal CLint at 1 µM of C[C@@]1(O)CC[C@H]2[C@H](CC[C@@H]3[C@@H]2CC[C@]2(C)[C@@H](C(=O)Cn4cnn(-c5cccc(F)c5)c4=O)CC[C@@H]32)C1 [Compound 1] noted as 24.2

Lab book: microsomal CLint at 1 µM of C[C@@]1(O)CC[C@H]2[C@H](CC[C@@H]3[C@@H]2CC[C@]2(C)[C@@H](C(=O)Cn4cnn(C5CCCC5)c4=O)CC[C@@H]32)C1 [Compound 29] noted as 36

Lab book: microsomal CLint at 1 µM of C[C@@]1(O)CC[C@H]2[C@H](CC[C@@H]3[C@@H]2CC[C@]2(C)[C@@H](C(=O)Cn4cnn(-c5ccccc5F)c4=O)CC[C@@H]32)C1 [Compound 18] noted as 154

Lab book: microsomal CLint at 1 µM of C[C@@]1(O)CC[C@H]2[C@H](CC[C@@H]3[C@@H]2CC[C@]2(C)[C@@H](C(=O)Cn4cnn(-c5ccccc5)c4=O)CC[C@@H]32)C1 [Compound 3] noted as 52

Lab book: microsomal CLint at 1 µM of C[C@@]1(O)CC[C@H]2[C@H](CC[C@@H]3[C@@H]2CC[C@]2(C)[C@@H](C(=O)Cn4cnn(-c5cc(F)ccc5F)c4=O)CC[C@@H]32)C1 [Compound 24] noted as 66

Lab book: microsomal CLint at 1 µM of C[C@@]1(O)CC[C@H]2[C@H](CC[C@@H]3[C@@H]2CC[C@]2(C)[C@@H](C(=O)Cn4cnn(-c5cccc(N)c5)c4=O)CC[C@@H]32)C1 [Compound 22] noted as 81

Lab book: microsomal CLint at 1 µM of C[C@@]1(O)CC[C@H]2[C@H](CC[C@@H]3[C@@H]2CC[C@]2(C)[C@@H](C(=O)Cn4cnn(CCOC(F)(F)F)c4=O)CC[C@@H]32)C1 [Compound 43] noted as 60

Lab book: microsomal CLint at 1 µM of C[C@@]1(O)CC[C@H]2[C@H](CC[C@@H]3[C@@H]2CC[C@]2(C)[C@@H](C(=O)Cn4cnn(-c5nccs5)c4=O)CC[C@@H]32)C1 [Compound 32] noted as 85

Lab book: microsomal CLint at 1 µM of C[C@@]1(O)CC[C@H]2[C@H](CC[C@@H]3[C@@H]2CC[C@]2(C)[C@@H](C(=O)Cn4cnn(-c5cccc(F)n5)c4=O)CC[C@@H]32)C1 [Compound 20] noted as 178

The measured values listed here are drawn from patent US20250368678A1.
